# Test system: mGPR17 (Mus musculus)
# Construct: contains a 1020 base pairs open reading frame (ORF) that encodes for a putative 339 amino acid protein; membranes
# Experiment notes: [35S]GTPγS binding in membranes of 1321N1 cells transfected with pcDNA3.1-Gpr17m
# Run parameters: membranes of 1321N1 cells expressing mouse GPR17; mean±SEM of three experiments; read-out: EC50, stimulation of [35S]GTPγS binding
Measured quantity: EC50 (nM)

See these solved cases before continuing.
smiles_record=CCCCC/C=C\C\C=C/C=C/C=C/[C@@H](SC[C@H](NC(=O)CC[C@H](N)C(=O)O)C(=O)NCC(=O)O)[C@@H](O)CCCC(=O)O output_unit=nM assay_value=0.74
smiles_record=CCCCC/C=C\C\C=C/C=C/C=C/[C@@H](SC[C@H](N)C(=O)O)[C@@H](O)CCCC(=O)O output_unit=nM assay_value=0.31

1: O=c1ccn([C@@H]2O[C@H](COP(=O)(O)OP(=O)(O)O)[C@@H](O)[C@H]2O)c(=O)[nH]1
2: CCCCC/C=C\C\C=C/C=C/C=C/[C@@H](SC[C@H](N)C(=O)NCC(=O)O)[C@@H](O)CCCC(=O)O
So which one has the bigger EC50 here, 1 or 2 ? To answer, give the label that identifies your chosen option.
1
(1: 55 nM, 2: 0.63 nM)

====

# Test system: mGPR17 (Mus musculus, UniProt Q6NS65)
# Construct: contains a 1020 base pairs open reading frame (ORF) that encodes for a putative 339 amino acid protein; membranes
# Sequence (Q6NS65 whole entry): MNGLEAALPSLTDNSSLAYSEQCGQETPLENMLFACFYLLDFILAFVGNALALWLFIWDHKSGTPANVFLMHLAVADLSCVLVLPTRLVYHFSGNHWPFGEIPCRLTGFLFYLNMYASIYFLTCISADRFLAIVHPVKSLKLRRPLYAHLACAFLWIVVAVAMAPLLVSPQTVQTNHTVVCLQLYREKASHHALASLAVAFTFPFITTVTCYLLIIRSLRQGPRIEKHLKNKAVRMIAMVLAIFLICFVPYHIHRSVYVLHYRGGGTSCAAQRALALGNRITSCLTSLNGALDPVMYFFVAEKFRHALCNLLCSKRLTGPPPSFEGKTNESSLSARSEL
# Experiment notes: [35S]GTPγS binding in membranes of 1321N1 cells transfected with pcDNA3.1-Gpr17m
# Run parameters: membranes of 1321N1 cells expressing mGPR17; 10 min pre-incubation; 500 nM UDP; read-out: IC50, inhibition of GTPγS binding stimulated by UDP
Measured quantity: pIC50
To interpret pIC50, take it as minus log10 of a concentration measured in moles per litre.

# query: pIC50 of entry CSCCNc1nc(SCCC(F)(F)F)nc2c1ncn2[C@@H]1O[C@H](COP(=O)(O)OP(=O)(O)C(Cl)(Cl)P(=O)(O)O)[C@@H](O)[C@H]1O [Cangrelor]
8.92
